# credit: patent US20140295512A1

experiment: KARI assay of purified S. exigua KARI and variants with NADH (Examples 6-9); type: biochemical; settings: cofactor NADH
measurement kind: U/mg NADH (specific activity) (U/mg)
Please respond with the number in U/mg and leave the unit unwritten.

Se1_KARI^1H1: S. exigua KARI variant R58P, S61C (protein, UniProt D0WGK0 1-342, looked up, variant R58P S61C) Ketol-acid reductoisomerase …: MSVKTKEKEMAVTILYEQDVDPKVIQGLKVGIIGYGSQGHAHALNLMDSGVDVRVGLPEGCSSWKTAEEAGLKVTDMDTAAEEADVIMVLVPDEIQPKVYQEHIAAHLKAGNTLAFAHGFNIHYGYIVPPEDVNVIMCAPKGPGHIVRRQFTEGSGVPDLACVQQDATGNAWDIVLSYCWGVGGARSGIIKATFAEETEEDLFGEQAVLCGGLVELVKAGFETLTEAGYPPELAYFECYHEMKMIVDLMYESGIHFMNYSISNTAEYGEYYAGPKVINEQSREAMKEILKRIQDGSFAQEFVDDCNNGHKRLLEQREAINTHPIETTGAQIRSMFSWIKKED | 0.20

Q) Data request, read-out U/mg NADH (specific activity), for Se1_KARI^MH9-his6: S. exigua KARI variant V99L (protein, UniProt D0WGK0 1-342, looked up, variant V99L, His6 tag, S. exigua KARI variant V99L) Ketol-acid reductoisomerase …: MSVKTKEKEMAVTILYEQDVDPKVIQGLKVGIIGYGSQGHAHALNLMDSGVDVRVGLREGSSSWKTAEEAGLKVTDMDTAAEEADVIMVLVPDEIQPKLYQEHIAAHLKAGNTLAFAHGFNIHYGYIVPPEDVNVIMCAPKGPGHIVRRQFTEGSGVPDLACVQQDATGNAWDIVLSYCWGVGGARSGIIKATFAEETEEDLFGEQAVLCGGLVELVKAGFETLTEAGYPPELAYFECYHEMKMIVDLMYESGIHFMNYSISNTAEYGEYYAGPKVINEQSREAMKEILKRIQDGSFAQEFVDDCNNGHKRLLEQREAINTHPIETTGAQIRSMFSWIKKED
A) 0.21
